Task for the reader: assign each of the following sequences its reported recombinant UMI read abundance (log10).
- Assay notes: recombinant UMI read abundance after kanamycin selection (control-corrected) (log10(CPM+1)); higher = more efficient recombination; extreme values may be limits of the assay; sequences stand for … in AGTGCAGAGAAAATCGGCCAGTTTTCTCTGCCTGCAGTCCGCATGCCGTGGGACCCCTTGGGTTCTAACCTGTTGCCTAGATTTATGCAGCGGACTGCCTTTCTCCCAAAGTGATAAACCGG…AGGTTGGTTTCACT; site = the 11-nt donor
Form rule: numeric answer, no unit written next to it.

In plain terms, TGTTCCCCATGGACCGGTTTTCCCGGTAATCCGTATTTGAA (site TGTTCCCCTTT) has a documented recombinant UMI read abundance (log10) of 0.0201

Entry ACCCTTTCATGGACCGGTTTTCCCGGTAATCCGTATTTGAC (site AACCTTTCTGT) , recombinant UMI read abundance (log10) reported as 0

For record CCCTTCTCATGGACCGGTTTTCCCGGTAATCCGTATTTGCG (site CCCTTCTCTCT) the listed recombinant UMI read abundance (log10) is 0.061

For reference, reported recombinant UMI read abundance (log10) for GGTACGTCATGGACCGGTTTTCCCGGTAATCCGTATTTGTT (site GGCACGTCTAA) stands at 0.0185

The sequence identified as CCTGCAGCATGGACCGGTTTTCCCGGTAATCCGTATTTGGC (site CCTGCAGCTGC) registered its recombinant UMI read abundance (log10) at 0

Reported recombinant UMI read abundance (log10) ( ACCATATCATGGACCGGTTTTCCCGGTAATCCGTATTTGTC (site ACCATATCTGA) ) = 2.03

Reported recombinant UMI read abundance (log10) of TTTGCTGCATGGACCGGTTTTCCCGGTAATCCGTATTTGCT (site TTTGCAGCTAG) : 0

Briefly, recombinant UMI read abundance (log10) measured for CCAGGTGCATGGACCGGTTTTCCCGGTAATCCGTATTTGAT (site CCAGATGCTAT) : 1.74

Looking up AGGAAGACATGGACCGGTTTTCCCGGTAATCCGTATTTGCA (site ACGAAGACTTA) , I found its recombinant UMI read abundance (log10) recorded as 0.00527

###

- Assay notes: recombinant barcode read abundance after kanamycin selection (control-corrected) (log10(CPM+1)); higher = more efficient recombination; sequences stand for … in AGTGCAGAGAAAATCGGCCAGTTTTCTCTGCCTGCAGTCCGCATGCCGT…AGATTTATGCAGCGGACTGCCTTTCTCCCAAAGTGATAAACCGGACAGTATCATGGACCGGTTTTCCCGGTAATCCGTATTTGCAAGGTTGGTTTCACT; site = the 11-nt target
Hi there, I'd appreciate the recorded recombinant barcode read abundance (log10) for every entry that follows.
I'd appreciate a reply containing only the number, no unit.

Entry under test: CAAAGGTCTTGGGTTCTAACCTGTTGCTA (site CAAAGGTCTTA) . Its recombinant barcode read abundance (log10) was 1.39

Data point: GCTGCTCCTTGGGTTCTAACCTGTTGCGT (site GCGGGTCCTAC) ; recombinant barcode read abundance (log10) = 0.0749

Input GGAATGCCTTGGGTTCTAACCTGTTGCCT (site GGAATCCCTAG) . Output recombinant barcode read abundance (log10): 0.0574

recombinant barcode read abundance (log10) for CTCGGTACTTGGGTTCTAACCTGTTGCCA (site CTCGGTACTTG) is 0.489

response.value for CAAAGACCTTGGGTTCTAACCTGTTGCGG (site AAAATACCTCC) (field: recombinant barcode read abundance (log10)) = 0.14

Recorded result, ATGCATCCTTGGGTTCTAACCTGTTGCCT (site AGGCATCCTAG) , recombinant barcode read abundance (log10): 0

Query GTCAACTCTTGGGTTCTAACCTGTTGCCT (site GTTAACTCTAG) yields recombinant barcode read abundance (log10) of 0.13

recombinant barcode read abundance (log10) reading for GGGACGCCTTGGGTTCTAACCTGTTGCAT (site GAGCCGCCTAT) : 0.0802

Entry CCTTTCACTTGGGTTCTAACCTGTTGCCT (site CCTATCCCTAG) ; recombinant barcode read abundance (log10) = 0.029

Note to self: recombinant barcode read abundance (log10) recorded for TATTGATCTTGGGTTCTAACCTGTTGCCT (site TAATGATCTAG) was 0.347

Where do these numbers come from? They come from the supplement of paper PMC11208160.
